# Assay System: FL-SMARCA4 (Homo sapiens)
# Sequence (P51532 whole entry): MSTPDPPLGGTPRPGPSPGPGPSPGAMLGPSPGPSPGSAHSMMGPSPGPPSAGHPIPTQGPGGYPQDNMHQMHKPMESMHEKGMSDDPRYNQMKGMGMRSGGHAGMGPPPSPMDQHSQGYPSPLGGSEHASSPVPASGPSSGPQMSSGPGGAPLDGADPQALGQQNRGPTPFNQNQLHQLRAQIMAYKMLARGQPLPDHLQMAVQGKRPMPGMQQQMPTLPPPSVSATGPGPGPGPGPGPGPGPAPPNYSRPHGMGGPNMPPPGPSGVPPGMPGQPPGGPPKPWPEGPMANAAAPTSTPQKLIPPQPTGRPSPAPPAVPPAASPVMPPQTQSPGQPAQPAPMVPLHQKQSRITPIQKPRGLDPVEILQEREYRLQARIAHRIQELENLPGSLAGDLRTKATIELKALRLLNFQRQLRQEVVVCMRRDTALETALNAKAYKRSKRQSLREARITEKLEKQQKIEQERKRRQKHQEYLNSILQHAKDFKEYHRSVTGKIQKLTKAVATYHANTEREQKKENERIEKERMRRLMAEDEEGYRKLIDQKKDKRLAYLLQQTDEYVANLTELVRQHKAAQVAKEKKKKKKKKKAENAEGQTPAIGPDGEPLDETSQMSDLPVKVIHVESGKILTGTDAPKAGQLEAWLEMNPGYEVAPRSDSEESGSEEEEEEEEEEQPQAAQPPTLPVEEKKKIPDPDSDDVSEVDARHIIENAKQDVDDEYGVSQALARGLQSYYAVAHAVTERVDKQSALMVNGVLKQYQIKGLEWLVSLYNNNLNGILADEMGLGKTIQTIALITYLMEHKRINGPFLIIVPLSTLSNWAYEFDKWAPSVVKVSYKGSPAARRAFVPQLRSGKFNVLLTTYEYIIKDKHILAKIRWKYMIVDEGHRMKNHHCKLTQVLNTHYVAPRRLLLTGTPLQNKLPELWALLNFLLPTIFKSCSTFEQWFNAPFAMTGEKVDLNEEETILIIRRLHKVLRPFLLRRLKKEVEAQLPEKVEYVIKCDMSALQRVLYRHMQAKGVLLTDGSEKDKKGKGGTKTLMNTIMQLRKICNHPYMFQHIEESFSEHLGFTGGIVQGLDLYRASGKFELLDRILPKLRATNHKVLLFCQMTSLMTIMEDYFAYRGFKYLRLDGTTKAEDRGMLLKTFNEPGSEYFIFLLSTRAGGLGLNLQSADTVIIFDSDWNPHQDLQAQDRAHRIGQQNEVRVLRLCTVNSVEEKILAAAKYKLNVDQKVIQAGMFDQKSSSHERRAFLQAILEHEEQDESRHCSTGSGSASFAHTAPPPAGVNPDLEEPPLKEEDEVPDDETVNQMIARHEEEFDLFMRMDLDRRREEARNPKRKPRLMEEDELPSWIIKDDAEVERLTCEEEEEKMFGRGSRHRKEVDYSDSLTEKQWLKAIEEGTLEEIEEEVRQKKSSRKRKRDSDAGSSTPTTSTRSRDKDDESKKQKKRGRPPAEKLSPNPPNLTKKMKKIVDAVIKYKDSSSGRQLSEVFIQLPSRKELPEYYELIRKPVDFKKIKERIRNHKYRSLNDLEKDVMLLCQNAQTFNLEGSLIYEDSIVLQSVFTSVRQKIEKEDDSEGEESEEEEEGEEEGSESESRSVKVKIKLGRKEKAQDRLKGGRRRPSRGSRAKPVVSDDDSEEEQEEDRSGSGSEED
# Test Details: SMARCA4 ATPase activity assay (ADP-Glo, chicken mononucleosome substrate)
# Condition: FL-SMARCA4 IC50, Table 3.2; ATPase assay, enzyme 5 nM, ATP 250 uM, chicken mononucleosome 10 nM, 30 min preincubation
Readout: IC50

Which value of IC50 has been reported for O=C(Nc1cc(F)c(=O)n(CCF)c1)c1csc(NC2CCCC2)n1 in the records?
> 50 µM

Which value of IC50 has been reported for N#Cc1cc(C(=O)Nc2cc(F)c(=O)n(CCF)c2)oc1C#N in the records?
6.37 µM

Which value of IC50 has been reported for Cn1c(C(=O)Nc2cc(Cl)c(=O)n(CCF)c2)cc(Cl)c1Cl in the records?
0.631 µM

Which value of IC50 has been reported for CCc1cc(C(=O)Nc2ccc(=O)n(CC)c2)sc1Cl in the records?
> 50 µM

Which value of IC50 has been reported for CCn1cc(NC(=O)c2cc(Cl)c(Cl)s2)cc(Cc2cnn(C)c2)c1=O in the records?
> 50 µM
